Test system: Recombinant human liver GK1 (GST-GK) (Homo sapiens, UniProt P35557)
Construct: made in house; host or cells: E. coli
Sequence (P35557 1-466 isoform P35557-2): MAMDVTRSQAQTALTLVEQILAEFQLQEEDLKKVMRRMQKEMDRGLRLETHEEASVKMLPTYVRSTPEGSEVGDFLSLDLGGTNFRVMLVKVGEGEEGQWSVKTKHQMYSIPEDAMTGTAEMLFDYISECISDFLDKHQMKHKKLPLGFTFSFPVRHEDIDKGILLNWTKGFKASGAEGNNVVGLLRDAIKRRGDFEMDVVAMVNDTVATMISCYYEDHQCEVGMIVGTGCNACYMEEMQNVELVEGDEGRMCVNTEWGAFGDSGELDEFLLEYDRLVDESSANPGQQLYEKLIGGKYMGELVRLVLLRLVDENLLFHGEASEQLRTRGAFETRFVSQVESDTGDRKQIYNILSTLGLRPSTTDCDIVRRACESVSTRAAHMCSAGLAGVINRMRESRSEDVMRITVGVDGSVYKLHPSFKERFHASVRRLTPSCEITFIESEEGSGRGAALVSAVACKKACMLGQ
Measurement description: In vitro glucokinase activity (G6PDH-coupled NADH assay)
Assay type: biochemical
Assay setup: 30° C., 5 mM D-glucose, 10% DMSO
Kindly return criterion met if reported SC1.5 (concentration of activator that produced a 50% increase in the activity of GK) is no lower than 0.3 µM; return criterion not met if it is lower.

{"columns": ["Compound", "Class label"],
 "data": [
  ["COc1ccc(Cc2nsc(NC(=O)[C@H](CC(C)C)N3CC(Oc4ccccc4Cl)=CC3=O)n2)cc1 [Example 109]", "criterion met"],
  ["CC(C)NC1=CC(=O)N([C@@H](CC2CCCC2)C(=O)Nc2ccn(CC(C)(C)O)n2)C1 [Example 234]", "criterion met"],
  ["CC(C)C[C@@H](C(=O)Nc1ccn(C[C@@H](O)CO)n1)N1CC(Oc2cccc(Cl)c2F)=CC1=O [Example 97]", "criterion not met"]
]}

## Input SC1.5 (concentration of activator that produced a 50% increase in the activity of GK) >= 0.3 µM for COC1=CC(=O)N([C@@H](CC2CCCC2)C(=O)Nc2ncc(F)s2)C1 [Example 8] ?
## Output criterion met

## Input How about CCOc1ccc(F)c(OC2=CC(=O)N([C@@H](CC(C)C)C(=O)Nc3ccn(C[C@@H](O)CO)n3)C2)c1F [Example 117] ?
## Output criterion not met

## Input How about CC(C)C[C@@H](C(=O)Nc1ccn(CC(C)(C)O)n1)N1CC(Oc2cccc(Cl)c2Cl)=CC1=O.Cl [Example 77] ?
## Output criterion not met

## Input How about O=C(Nc1ccn(C[C@@H](O)CO)n1)[C@H](Cc1ccccc1F)N1CC(Oc2ccccc2Cl)=CC1=O [Example 183] ?
## Output criterion met

## Input How about CC(C)(O)Cn1ccc(NC(=O)C(CC2CC3CCC2C3)N2CC(Oc3c(F)cccc3F)=CC2=O)n1 (centres unmarked) [Example 228] ?
## Output criterion met
